Consider the following molecules and their measured koff ClpC1-NTD readings.
# system tested: ClpC1 NTD protein (M. tuberculosis) (Mycobacterium tuberculosis)
# Sequence (P9WPC9 1-156, looked up, natural form): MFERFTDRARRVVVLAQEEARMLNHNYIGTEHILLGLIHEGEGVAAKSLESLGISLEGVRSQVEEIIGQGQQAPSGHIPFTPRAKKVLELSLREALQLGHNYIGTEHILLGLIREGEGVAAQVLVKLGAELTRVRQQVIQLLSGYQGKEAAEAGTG
# method summary: biochemical
# Format: binding
*1 amine or outer side, *2 acyl side, *3 side chain or, on linkers, in order; H or OH if unused. Where a SMILES comes first, the peptide text is derived from it. [ ]: non-standard residue; d: D form. X9 = C=CC(C)(C)n1cc(C[C@@H](C(=O)[*:2])N(C)[*:1])c2ccccc21; Ala(3R-Me,3-isobutenyl) = CC(C)=C[C@@H](C)[C@H](N)C(=O)O; NMeLeu(5-OH,4R) = CN[C@@H](C[C@@H](C)CO)C(=O)O; Phe(βR-OMe) = CO[C@H](c1ccccc1)[C@H](N)C(=O)O; NMeL = CN[C@@H](CC(C)C)C(=O)O

I looked up COC(c1ccc(OCc2cn(CCOCCOCCOCCOCCn3cc(COc4ccc(C(OC)C5NC(=O)C(C)NC(=O)C(CC(C)CO)N(C)C(=O)C(Cc6cn(C)c7ccccc67)N(C)C(=O)C(C(C)C)NC(=O)C(CC(C)C)N(C)C(=O)C(C(C)C)NC5=O)cc4)nn3)nn2)cc1)C1NC(=O)C(C)NC(=O)C(CC(C)CO)N(C)C(=O)C(Cc2cn(C)c3ccccc23)N(C)C(=O)C(C(C)C)NC(=O)C(CC(C)C)N(C)C(=O)C(C(C)C)NC1=O (stereo not drawn) [SI-65] and its koff ClpC1-NTD for ClpC1 NTD protein (M. tuberculosis) (Mycobacterium tuberculosis) was 5E-3 1E-2 1/s

I looked up COC(c1ccc(OCc2cn(CCOCCOCCOCCOCCn3cc(COc4ccc(C(OC)C5NC(=O)C(C)NC(=O)C(CC(C)CO)N(C)C(=O)C(Cc6cn(C)c7ccccc67)NC(=O)C(C(C)C)NC(=O)C(CC(C)C)N(C)C(=O)C(C(C)C)NC5=O)cc4)nn3)nn2)cc1)C1NC(=O)C(C)NC(=O)C(CC(C)CO)N(C)C(=O)C(Cc2cn(C)c3ccccc23)NC(=O)C(C(C)C)NC(=O)C(CC(C)C)N(C)C(=O)C(C(C)C)NC1=O (stereo not drawn) [SI-39] and its koff ClpC1-NTD for ClpC1 NTD protein (M. tuberculosis) (Mycobacterium tuberculosis) was 1E-3 7E-4 1/s

Could you now look at the following molecule, please?
I looked up C=CC(C)(C)n1cc(C[C@H]2C(=O)N(C)[C@@H](C[C@@H](C)CO)C(=O)N[C@@H](C)C(=O)N[C@@H]([C@H](OC)c3ccccc3)C(=O)N[C@@H](C(C)C)C(=O)N(C)[C@@H](CC(C)C)C(=O)N[C@@H]([C@H](C)C=C(C)C)C(=O)N2C)c2ccccc21 [Compound 23] (cyclo(A[Phe(βR-OMe)]V[NMeL][Ala(3R-Me,3-isobutenyl)][X9][NMeLeu(5-OH,4R)])) and its koff ClpC1-NTD for ClpC1 NTD protein (M. tuberculosis) (Mycobacterium tuberculosis) was 1E-2 1E-1 1/s

###

# Tested on: M. tuberculosis H37Rv (ATCC 27294)
# method summary: microbe, parasite or virus in culture
# Format: cell-based
# recorded conditions: Mycobacterium tuberculosis, M. tuberculosis H37Rv strain; read-out: MIC Mtb H37Rv Mean ± SD
*1 amine or outer side, *2 acyl side, *3 side chain or, on linkers, in order; H or OH if unused. Where a SMILES comes first, the peptide text is derived from it. [ ]: non-standard residue; d: D form. Trp(1-(1,1-Me2-allyl)) = C=CC(C)(C)n1cc(C[C@H](N)C(=O)O)c2ccccc21; Ala(3R-Me,3-isobutenyl) = CC(C)=C[C@@H](C)[C@H](N)C(=O)O; X2 = C#CCn1cc(C[C@@H](C(=O)[*:2])N(C)[*:1])c2ccccc21; X1 = C#CCn1cc(C[C@H](N[*:1])C(=O)[*:2])c2ccccc21; NMeLeu(5-OH,4R) = CN[C@@H](C[C@@H](C)CO)C(=O)O; Phe(βR-OMe) = CO[C@H](c1ccccc1)[C@H](N)C(=O)O; NMeL = CN[C@@H](CC(C)C)C(=O)O
observation type: MIC (µM)
# value in µM; strip the unit string

Past entries and their recorded results:
COC(c1ccccc1)C1NC(=O)C(C)NC(=O)C(CC(C)CO)N(C)C(=O)C(Cc2cn(C)c3ccccc23)NC(=O)C(Cc2cn(CCCCCn3cc(CC4NC(=O)C(CC(C)C)N(C)C(=O)C(C(C)C)NC(=O)C(C(OC)c5ccccc5)NC(=O)C(C)NC(=O)C(CC(C)CO)N(C)C(=O)C(Cc5cn(C)c6ccccc56)NC4=O)nn3)nn2)NC(=O)C(CC(C)C)N(C)C(=O)C(C(C)C)NC1=O (stereo not shown) [Compound 12] has a reported MIC of 0.1

C#CCn1cc(C[C@@H]2NC(=O)[C@H](C(C)C)NC(=O)[C@H](CC(C)C)N(C)C(=O)[C@H](C(C)C)NC(=O)[C@H]([C@H](OC)c3ccccc3)NC(=O)[C@H](C)NC(=O)[C@H](C[C@@H](C)CO)N(C)C2=O)c2ccccc21 [Compound 5] (cyclo(A[Phe(βR-OMe)]V[NMeL]V[X1][NMeLeu(5-OH,4R)])) has a reported MIC of 1.6

COC(c1ccccc1)C1NC(=O)C(C)NC(=O)C(CC(C)CO)N(C)C(=O)C(Cc2cn(CC=CCn3cc(CC4NC(=O)C(C(C)C)NC(=O)C(CC(C)C)N(C)C(=O)C(C(C)C)NC(=O)C(C(OC)c5ccccc5)NC(=O)C(C)NC(=O)C(CC(C)CO)N(C)C4=O)c4ccccc43)c3ccccc23)NC(=O)C(C(C)C)NC(=O)C(CC(C)C)N(C)C(=O)C(C(C)C)NC1=O (stereo not shown) [Compound 15] has a reported MIC of 0.2

C=CC(C)(C)n1cc(C[C@@H]2NC(=O)[C@H]([C@H](C)C=C(C)C)NC(=O)[C@H](CC(C)C)N(C)C(=O)[C@H](C(C)C)NC(=O)[C@H]([C@H](OC)c3ccccc3)NC(=O)[C@H](C)NC(=O)[C@H](C[C@@H](C)CO)N(C)C2=O)c2ccccc21 [dCymC] (cyclo([Trp(1-(1,1-Me2-allyl))][NMeLeu(5-OH,4R)]A[Phe(βR-OMe)]V[NMeL][Ala(3R-Me,3-isobutenyl)])) has a reported MIC of 0.4

CO[C@H](c1ccccc1)[C@@H]1NC(=O)[C@H](C)NC(=O)[C@H](C[C@@H](C)CO)N(C)C(=O)[C@H](Cc2cn(Cc3cn(CCOCCn4cc(Cn5cc(C[C@@H]6NC(=O)[C@H](C(C)C)NC(=O)[C@H](CC(C)C)N(C)C(=O)[C@H](C(C)C)NC(=O)[C@H]([C@H](OC)c7ccccc7)NC(=O)[C@H](C)NC(=O)[C@H](C[C@@H](C)CO)N(C)C6=O)c6ccccc65)nn4)nn3)c3ccccc23)NC(=O)[C@H](C(C)C)NC(=O)[C@H](CC(C)C)N(C)C(=O)[C@H](C(C)C)NC1=O [Compound 6] has a reported MIC of 0.4

Others:
C#CCn1cc(C[C@H]2C(=O)N(C)[C@@H](C[C@@H](C)CO)C(=O)N[C@@H](C)C(=O)N[C@@H]([C@H](OC)c3ccccc3)C(=O)N[C@@H](C(C)C)C(=O)N(C)[C@@H](CC(C)C)C(=O)N[C@@H](C(C)C)C(=O)N2C)c2ccccc21 [Compound 26] (cyclo(A[Phe(βR-OMe)]V[NMeL]V[X2][NMeLeu(5-OH,4R)])) has a reported MIC of 6.3

CCCCCn1cc(C[C@@H]2NC(=O)[C@H](CC(C)C)N(C)C(=O)[C@H](C(C)C)NC(=O)[C@H]([C@H](OC)c3ccccc3)NC(=O)[C@H](C)NC(=O)[C@H](C[C@@H](C)CO)N(C)C(=O)[C@H](Cc3cn(C)c4ccccc34)N(C)C2=O)nn1 [Compound 25] has a reported MIC of 6.3

###

Consider the following molecules and their measured MIC readings.
# System: Mtb (moxR) FNDR-M1
# method summary: microbe, parasite or virus in culture
# Assay type: cell-based
# recorded conditions: Mycobacterium tuberculosis, M. tuberculosis FNDR-M1; single well replicates
*1 amine or outer side, *2 acyl side, *3 side chain or, on linkers, in order; H or OH if unused. Where a SMILES comes first, the peptide text is derived from it. [ ]: non-standard residue; d: D form. X1 = C#CCn1cc(C[C@H](N[*:1])C(=O)[*:2])c2ccccc21; NMeLeu(5-OH,4R) = CN[C@@H](C[C@@H](C)CO)C(=O)O; Phe(βR-OMe) = CO[C@H](c1ccccc1)[C@H](N)C(=O)O; Trp(1-Me) = Cn1cc(C[C@H](N)C(=O)O)c2ccccc21; NMeL = CN[C@@H](CC(C)C)C(=O)O; Pra = C#CC[C@H](N)C(=O)O
# value in µM; strip the unit string

Past entries and their recorded results:
C#CCn1cc(C[C@@H]2NC(=O)[C@H](C(C)C)NC(=O)[C@H](CC(C)C)N(C)C(=O)[C@H](C(C)C)NC(=O)[C@H]([C@H](OC)c3ccccc3)NC(=O)[C@H](C)NC(=O)[C@H](C[C@@H](C)CO)N(C)C2=O)c2ccccc21 [Compound 5] (cyclo(A[Phe(βR-OMe)]V[NMeL]V[X1][NMeLeu(5-OH,4R)])) has a reported MIC of 0.781

COC(c1ccccc1)C1NC(=O)C(C)NC(=O)C(CC(C)CO)N(C)C(=O)C(Cc2cn(Cc3cn(CCOCCOCCOCCOCCn4cc(Cn5cc(CC6NC(=O)C(C(C)C)NC(=O)C(CC(C)C)N(C)C(=O)C(C(C)C)NC(=O)C(C(OC)c7ccccc7)NC(=O)C(C)NC(=O)C(CC(C)CO)N(C)C6=O)c6ccccc65)nn4)nn3)c3ccccc23)NC(=O)C(C(C)C)NC(=O)C(CC(C)C)N(C)C(=O)C(C(C)C)NC1=O (stereo not shown) has a reported MIC of 0.195

C#CC[C@@H]1NC(=O)[C@H](CC(C)C)N(C)C(=O)[C@H](C(C)C)NC(=O)[C@H]([C@H](OC)c2ccccc2)NC(=O)[C@H](C)NC(=O)[C@H](C[C@@H](C)CO)N(C)C(=O)[C@H](Cc2cn(C)c3ccccc23)NC1=O [Compound 10] (cyclo(A[Phe(βR-OMe)]V[NMeL][Pra][Trp(1-Me)][NMeLeu(5-OH,4R)])) has a reported MIC of 1.56

Could you now look at the following molecule, please?
NNC(=O)c1ccncc1 has a reported MIC of 0.11
